Target or test system: T1, Human TCTP (translationally controlled tumor protein) (human, UniProt P13693 1-172)
T1 construct: also called HRF; Tpt1
T1 sequence: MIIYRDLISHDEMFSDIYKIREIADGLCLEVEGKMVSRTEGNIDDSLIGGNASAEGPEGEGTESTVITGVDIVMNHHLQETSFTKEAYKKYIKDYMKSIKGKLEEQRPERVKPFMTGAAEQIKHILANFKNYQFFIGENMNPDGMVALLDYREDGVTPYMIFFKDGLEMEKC
Test description: SPR, Biacore 8K, human TCTP immobilised on CM5 chip, antibody as analyte, 1:1 model
Protocol: The antigen binding capacity of antibodies selected in Example 1 was analyzed using a SPR technique. The device used was Biacore 8K (Ge Healthcare). Human TCTP was immobilized on a chip, and antibodies were shed at 6 or 7 different concentrations. A CM5 chip (GE Healthcare, Cat. 29-1275-56), a regeneration buffer (10 mM glycine-HCl (GE Healthcare)), and a driving buffer HBS-EP+, and the like were used. […]
Exercise: state measured Kd for each of the binders provided.
Field: numeric (nM). Do not append units.

# Kd lookup, item Ab6 (antibody, V domains shown, From Beacon screening; also called antibody Ab6) VH: QVQLQESGPGLVKPSGTLSLTCAVSGGSISSSNWWSWVRQPPGKGLEWIGEIDHSGTTTYNPSLKSRVTMSVDQSKNQFSLKLSSVTAADTAVYYCARDGSGSYEGYWGQGTLVTVSS VL: DIQMTQSPSSLSASVGDRVTITCRASQAISNHLAWFQQKPGKAPKSLIYAASSLQSGVPSKFSGSGSGTDFTLTISSLQPEDFATYYCQQYHSYPITFGQGTRLEIK
72.8

Next: Ab7 (antibody, V domains shown, From Beacon screening; also called antibody Ab7) VH: QVQLQESGPGLVKPSETLSLTCAVSGGSISSSNWWSWVRQPPGKGLEWIGEIYHGVTTYNPSLKSRVTISVDNSKNQFSLKLSSVTAADTAVYYCARDGSGSYEGYWGQGTLVTVSS VL: DIQMTQSPSSLSASVGDRVTITCRASQDISNYLAWFQQKPGKAPKSLIYAASSLQSGVPSKFSGSGSGTDFTLTISSLQPEDFATYYCQQYHYYPITFGQGTRLEIK
107

Next: Ab8 (antibody, V domains shown, From Beacon screening; also called antibody Ab8) VH: QVQLVQSGAEVKKPGASVKVSCKASGYTFFSYAMHWVRQAPGQRLEWMGWINAGNGNTKYSQKFQDRVTITRDTSATTAYMELSSLRSEDTAVYYCASWVFDYWGQGTPVTVSS VL: DIVMTQTPLSSLVTLGQPASISCRSSQSLVHRDGNTYLSWLQQRPGQPPRLLIYKISNRFFGVPDRFSGSGAGTDFTLKISRVEAEDVGVYYCMQATQFPHTFGQGTKLEIK
14

Next: Ab20 (antibody, V domains shown, also called antibody Ab20) VH: QVQLQQSGPGLVKPSQTLSLTCAISGDSVSSSSAAWNWIRQSPSRGLEWLGRTFYRSKWYNDYAESVKSRITINADTSKNQFSLQLNSVTPEDTAVYYCARRLTIVRGVMRGGMDVWGQGTTVTVSS VL: DIVMTQSPDSLTGSLDERATINCKSSQNLLYSANNKDYIAWYQQKPGQSPKLLIYWASIRYSGVPDRFSGSGSGTDFTLTISSLQAEDVAVYYCQQYFSTPWTFGQGTKVEIK
0.704

Next: Ab12 (antibody, V domains shown, also called antibody Ab12) VH: QVQLVQSGAEVKKPGASVKVSCKASGYTFTSHAVHWVRQAPGQRLEWMGWINAGKGNTKYSQKFQGRVTITRDTSATTAYMELSSLRSEDTAVYYCARGRAVAFDPWGQGTLVTVSS VL: RSALTQPPSASGSPGQSVTVSCTGTNSDIGGYNYVSWYKQHPGNAPKLMIYEVNKRPSGVPDRFSGSKSGNTASLTVSGLQTEDEADYYCASYAGDNNLVFGGGTKLTVL
0.168

Next: Ab19 (antibody, V domains shown, also called antibody Ab19) VH: QVQLQQSGPGLVKPSQTLSLTCAISGDSVSSSSAAWNWIRQSPSRGLEWLGRTYYRSKWYNDYAESVKSRITINPDTSKNQFSLQLNSVTPEDTAVYYCARRLTIVRGVMRGGMDVWGQGTTVTVSS VL: DIVMTQSPDSLAVSLDERATINCKSSQNLLYSANNKDYLAWYQQKPGQPPKLLIYWASTRYSGIPDRFSGSGSGTDFTLTISSLQAEDVAVYYCQQYYSTPWTFGQGTKVEIK
2.77
